# Test Method Notes: Plasma protein binding in mouse plasma after 4 hrs by LC/MS/MS method
# Type: ADME, cell-free
# Assay Setup: read-out: PPB (converted)
Measurement Type: fraction unbound at 4 h
Give bare numbers.

-- ask Recorded fraction unbound at 4 h for O=C(Nc1ccc(S(=O)(=O)N2CCC(Cl)CC2)cc1)c1ccc([N+](=O)[O-])o1 , please?
-- reply 0.16

====

# Test Method Notes: Stability in human plasma assessed as compound remaining after 180 mins by LC/MS/MS method
# Format: ADME, cell-free
# Assay Setup: read-out: Stability
Measurement Type: remaining at 3 h (%)
Numbers only, in %.

-- ask Fill in the blank: the reported remaining at 3 h of O=C(Nc1ccc(S(=O)(=O)N2CCC(Cl)CC2)cc1)c1ccc([N+](=O)[O-])o1 is ____.
-- reply 86

====

# Tested on: MEF
# Test Method Notes: Antiproliferative activity against wild-type MEF cells after 16 hrs by luminescence assay
# Type: functional, cell-based
# Assay Setup: Mus musculus
Please respond with met when measured EC50 is strictly beneath 5 µM, and with not met in all other cases.

{"Molecule": "CC1CCN(S(=O)(=O)c2ccc(NC(=O)c3ccc([N+](=O)[O-])o3)cc2)CC1", "Qualitative Label": "met"}
{"Molecule": "O=C(Nc1ccc(S(=O)(=O)N2CCC(Cl)CC2)cc1)c1ccc([N+](=O)[O-])o1", "Qualitative Label": "met"}
{"Molecule": "CC(C)(C)C1CCN(S(=O)(=O)c2ccc(NC(=O)c3ccc([N+](=O)[O-])o3)cc2)CC1", "Qualitative Label": "met"}
{"Molecule": "CC1(C)CCN(S(=O)(=O)c2ccc(NC(=O)c3ccc([N+](=O)[O-])o3)cc2)CC1", "Qualitative Label": "met"}
{"Molecule": "O=C(Nc1ccc(S(=O)(=O)N2CCCCC2)cc1)c1ccc([N+](=O)[O-])o1", "Qualitative Label": "not met"}

Now consider the entry below.
-- ask Could you please tell me whether EC50 recorded for O=C(Nc1ccc(S(=O)(=O)N2CCC(F)CC2)cc1)c1ccc([N+](=O)[O-])o1 is less than 5 µM?
-- reply not met

====

# Test Method Notes: Cmax in CD-1 mouse at 30 mg/kg, ip
# Format: ADME, organism-based
# Design: dose 30 mg/kg, route intraperitoneal
# Assay Setup: in vivo
Measurement Type: Cmax (nM)
One number for each entry, in nM.

-- ask Which measured Cmax value corresponds to O=C(Nc1ccc(S(=O)(=O)N2CCC(Cl)CC2)cc1)c1ccc([N+](=O)[O-])o1 ?
-- reply 140

====

Exercise: state measured pEC50 for each of the molecules provided.
# Tested on: MEF
# Test Method Notes: Antiproliferative activity against CHOP-knock out MEF cells after 16 hrs by luminescence assay
# Format: functional, cell-based
# Assay Setup: Mus musculus
Give bare numbers, as −log10 of the molar value.

{"Molecule": "CC(C)(C)C1CCN(S(=O)(=O)c2ccc(NC(=O)c3ccc([N+](=O)[O-])o3)cc2)CC1", "pEC50": 5.68}

Return reported pEC50 values for all items listed beneath this line.
1. CC1CCN(S(=O)(=O)c2ccc(NC(=O)c3ccc([N+](=O)[O-])o3)cc2)CC1
2. CC1(C)CCN(S(=O)(=O)c2ccc(NC(=O)c3ccc([N+](=O)[O-])o3)cc2)CC1

-- reply
4.79
5.04

Reference for the values: ChEMBL document CHEMBL3352780
